MEASURED_ON: human M1 receptor (hCHRM1) (Homo sapiens)
Construct: expressed in transfected cells
EXPERIMENT_DESCRIPTION: Measurement of M1 receptor positive allosteric modulator (M1PAM) activity, calcium fluorescence (FLIPRtetra)
Format: cell-based
EXPERIMENTAL_PARAMETERS: 10 μM test compound with acetylcholine at EC20 (final 0.6-0.8 nM); 100% = acetylcholine 1 μM, 0% = DMSO; CHO-K1 cells expressing hCHRM1
READOUT_KIND: activity (%) at 10 μM

INSERT INTO assay_data (molecule, measured_on, measured_result) VALUES
  ('Cc1cnc(C(=O)N[C@H]2COCC[C@@H]2O)cc1Cc1ccc(-n2cccn2)cc1', 'human M1 receptor (hCHRM1) (Homo sapiens)', 99),
  ('COc1cnc(C(=O)N[C@H]2CCCC[C@@H]2O)cc1Cc1ccc(-c2cnn(C)c2)nc1 [Example 59]', 'human M1 receptor (hCHRM1) (Homo sapiens)', 90),
  ('O=C(N[C@H]1CCCC[C@@H]1O)c1cc(Cc2ccc(-n3cccn3)cc2)c(C2CC2)cn1', 'human M1 receptor (hCHRM1) (Homo sapiens)', 101),
  ('Cc1cnc(C(=O)N[C@H]2CCCC[C@@H]2O)cc1Cc1ccc(-n2cccn2)cc1 [Example 48]', 'human M1 receptor (hCHRM1) (Homo sapiens)', 106),
  ('Cc1nc(C(=O)N[C@H]2CCCC[C@@H]2O)cc(Cc2ccc(-n3cccn3)cc2)c1C#N', 'human M1 receptor (hCHRM1) (Homo sapiens)', 91),
  ('Cc1nc(C(=O)N[C@H]2COCC[C@@H]2O)cc(Cc2ccc(-c3ccn(C)n3)cc2)c1C#N', 'human M1 receptor (hCHRM1) (Homo sapiens)', 111),
  ('Cc1nc(C(=O)N[C@H]2COCC[C@@H]2O)cc(Cc2ccc(-c3ccn(C)n3)nc2)c1C', 'human M1 receptor (hCHRM1) (Homo sapiens)', 95);

----------
MEASURED_ON: human M1 receptor (hCHRM1) (Homo sapiens, UniProt P11229)
Construct: expressed in transfected cells
Sequence (P11229 whole entry): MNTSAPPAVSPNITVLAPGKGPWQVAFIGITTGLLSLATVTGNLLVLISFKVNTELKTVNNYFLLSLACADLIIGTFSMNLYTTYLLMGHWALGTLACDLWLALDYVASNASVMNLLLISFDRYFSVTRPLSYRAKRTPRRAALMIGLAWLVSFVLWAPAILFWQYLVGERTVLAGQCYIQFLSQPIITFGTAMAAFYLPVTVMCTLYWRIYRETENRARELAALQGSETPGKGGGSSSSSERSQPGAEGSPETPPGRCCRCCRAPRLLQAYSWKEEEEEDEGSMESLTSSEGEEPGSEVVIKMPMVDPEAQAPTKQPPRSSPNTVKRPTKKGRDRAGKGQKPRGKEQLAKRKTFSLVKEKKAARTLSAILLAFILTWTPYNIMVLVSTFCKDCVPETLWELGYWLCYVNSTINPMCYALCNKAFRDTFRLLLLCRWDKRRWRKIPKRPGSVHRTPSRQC
EXPERIMENT_DESCRIPTION: Measurement of M1 receptor positive allosteric modulator (M1PAM) activity, calcium fluorescence (FLIPRtetra)
Assay type: cell-based
EXPERIMENTAL_PARAMETERS: 10 μM test compound with acetylcholine at EC20 (final 0.6-0.8 nM); 100% = acetylcholine 1 μM, 0% = DMSO; CHO-K1 cells expressing hCHRM1
READOUT_KIND: activity (%) at 10 μM

INSERT INTO results (molecule, measured_result) VALUES
  ('Cc1cnc(C(=O)NC2CC(F)(F)C2)cc1Cc1ccc(-c2ccn(C)n2)cc1', 85),
  ('Cc1nc(C(=O)N[C@H]2CCC[C@@H]2O)cc(Cc2ccc(-c3ccn(C)n3)nc2)c1C', 106),
  ('Cc1nc(C(=O)N[C@H]2CCCC[C@@H]2O)cc(Cc2ccc(C#N)cc2)c1Cl', 105),
  ('O=C(N[C@H]1CCC[C@@H]1O)c1cc(Cc2ccc(-n3cccn3)cc2)c(C(F)F)cn1', 106),
  ('Cc1nc(C(=O)N[C@H]2CCCC[C@@H]2O)cc(Cc2ccc(-c3cnn(C)c3)nc2)c1C', 84),
  ('Cc1nn(C)cc1-c1ccc(Cc2cc(C(=O)N[C@H]3CCCC[C@@H]3O)nc(C)c2Cl)cn1', 95),
  ('COc1cnc(C(=O)N[C@H]2CCCC[C@@H]2O)cc1Cc1ccc(Br)cc1', 96),
  ('Cc1cnc(C(=O)N[C@H]2CCCC[C@@H]2O)cc1Cc1ccc(-n2cccn2)cc1F', 113),
  ('Cc1nc(C(=O)N[C@H]2CCCC[C@@H]2O)cc(Cc2ccc(-c3ccn(C)n3)cc2)c1Cl', 106),
  ('Cc1nc(C(=O)N[C@H]2COCC[C@@H]2O)cc(Cc2ccc(C#N)cc2)c1Cl', 105);
